# studyTarget: P9, fluorescein-labelled proline-rich peptide from the SOS1 proline-rich domain (human, UniProt Q07889, fluorescein (FITC) label, position not stated)
# measurementProtocol: FP
assayReadout: pKd
Recall that pKd is obtained by taking minus log10 of the concentration measured in molar.

The recorded pKd for BIN1 SH3 domain, GST cleaved (domain or fragment) GFMFKVQAQHDYTATDTDELQLKAGDVVLVIPFQNPEEQDEGWLMGVKESDWNQHKELEKCRGVFPENFTERVP is 4.33
